B1: Homeobox protein cut-like 1, residues 548 to 629; numbered along this chain, P39880 (parent)
chain: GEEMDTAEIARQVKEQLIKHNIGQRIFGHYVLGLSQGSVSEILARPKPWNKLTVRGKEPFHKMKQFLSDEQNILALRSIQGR

- Variants of: B1
- EXPERIMENT DESCRIPTION: abundance fitness (aPCA) (normalised: wild type 0, dead -1); higher = more abundant; growth selection in yeast, the domain comes from the species named
- SETUP CONDITIONS: Homo sapiens
// not satisfied strictly below -0.1 in abundance fitness; satisfied otherwise

[ask] Confirm if abundance fitness reported for the variant A7S is -0.1 or above.
[reply] satisfied

[ask] Confirm if abundance fitness reported for the variant A44Q is -0.1 or above.
[reply] satisfied

[ask] Determine whether this variant has abundance fitness no lower than -0.1: V13T
[reply] not satisfied

[ask] Reported abundance fitness at or above -0.1? I73T
[reply] not satisfied

[ask] Does the reported abundance fitness for K14C fall at or above the -0.1 mark?
[reply] not satisfied

[ask] Is reported abundance fitness greater than or equal to -0.1 here: N72A
[reply] satisfied

[ask] Hi, just wondering whether K57F shows abundance fitness of -0.1 or higher.
[reply] not satisfied

[ask] Identify whether the reported abundance fitness of the following variant is -0.1 or greater: N21D
[reply] satisfied

[ask] Hi team, for S35Q , is the recorded abundance fitness at or above -0.1?
[reply] satisfied

[ask] Could you please find out whether G28K has abundance fitness that meets -0.1 or exceeds it?
[reply] not satisfied

[ask] Does abundance fitness meet or surpass -0.1 for N50C ?
[reply] satisfied

[ask] Assess whether reported abundance fitness for F27Q sits at -0.1 or higher.
[reply] not satisfied

[ask] Could you please find out whether N50Y has abundance fitness that meets -0.1 or exceeds it?
[reply] not satisfied

[ask] Evaluate E70H : abundance fitness at minimum -0.1?
[reply] satisfied

[ask] Does W49S have a reported abundance fitness of at least -0.1?
[reply] not satisfied

[ask] # bool: abundance fitness of N72R >= -0.1
[reply] not satisfied

[ask] Is it the case that M63H has abundance fitness reaching or exceeding -0.1?
[reply] not satisfied

[ask] Given the entry G23R , answer whether its abundance fitness meets or surpasses -0.1.
[reply] satisfied

[ask] Has F27G a recorded abundance fitness greater than or equal to -0.1?
[reply] not satisfied

[ask] Hi, just wondering whether G28D shows abundance fitness of -0.1 or higher.
[reply] not satisfied

[ask] In plain terms: is recorded abundance fitness at least -0.1 for A75Q ?
[reply] satisfied

[ask] hey, is abundance fitness for this one >= -0.1? G28V
[reply] not satisfied

[ask] Identify whether the reported abundance fitness of the following variant is -0.1 or greater: V31Q
[reply] not satisfied

[ask] Hi team, for S78K , is the recorded abundance fitness at or above -0.1?
[reply] satisfied

[ask] Does K57I have a reported abundance fitness of at least -0.1?
[reply] not satisfied

[ask] Given Q80N , state whether its abundance fitness is at least -0.1.
[reply] satisfied

[ask] Threshold query (abundance fitness >= -0.1) on V39G
[reply] not satisfied

[ask] Dear colleague, could you confirm whether A75S has abundance fitness at or above -0.1?
[reply] satisfied
